Please respond with reported melting point for every item in the list.

Problem: Consider the molecule "O=[N+]([O-])C=C1NCCCCN1" and give its measured melting point.
Result: 152 to 154 °C

Problem: Consider the molecule "CCOC(=O)c1cc(-c2ccc(OCCO[Si](C)(C)C(C)(C)C)cc2)n(-c2ccc(OC)cc2)n1" and give its measured melting point.
Result: 86 to 87 °C

Problem: Consider the molecule CCNC(CC)CCOc1ccc(-c2ccc(C(=O)O)cc2)cc1-c1ccc2c(c1)C(C)(C)CCC2(C)C (centres undefined) and give its measured melting point.
Result: 195 °C

Problem: Consider the molecule "CCCCCCCCCCNC(=O)c1cc(N)cc(C(=O)NCCCCCCCCCC)c1" and give its measured melting point.
Result: 188 to 189 °C
